Experiment: Compound was evaluated for total body clearance
Format: ADME
Details: read-out: Activity (converted)
ENDPOINT_NAME: clearance (mL/min/kg)

1) Cc1ccccc1[C@@H](Nc1ccc(Cl)cc1Cl)C(=O)CCc1ccncc1 :: 21.7

----------
Experiment: Compound was evaluated for volume of distribution at steady state
Type: ADME
Conditions: read-out: Activity
ENDPOINT_NAME: Vd (L/kg)

1) Cc1ccccc1[C@@H](Nc1ccc(Cl)cc1Cl)C(=O)CCc1ccncc1 :: 1.8

----------
Biological target: Corticotropin-releasing factor receptor 1 (Homo sapiens)
Sequence (P34998 whole entry): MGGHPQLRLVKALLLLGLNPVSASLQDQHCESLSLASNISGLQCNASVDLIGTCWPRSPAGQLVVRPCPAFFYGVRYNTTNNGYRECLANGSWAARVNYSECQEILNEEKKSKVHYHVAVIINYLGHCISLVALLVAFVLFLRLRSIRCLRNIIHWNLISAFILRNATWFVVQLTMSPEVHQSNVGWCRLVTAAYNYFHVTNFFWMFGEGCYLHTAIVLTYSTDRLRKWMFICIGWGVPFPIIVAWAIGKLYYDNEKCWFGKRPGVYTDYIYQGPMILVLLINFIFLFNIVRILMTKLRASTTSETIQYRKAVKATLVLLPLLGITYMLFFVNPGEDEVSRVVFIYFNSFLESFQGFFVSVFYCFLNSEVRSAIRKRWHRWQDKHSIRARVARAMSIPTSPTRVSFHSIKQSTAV
Assay: Binding affinity towards human corticotropin releasing factor (h-CRF1) receptor
pKi: −log10 of the molar value.
ENDPOINT_NAME: pKi

1) Cc1ccccc1[C@H](Nc1ccc(Cl)cc1Cl)C(=O)CCc1ccncc1 :: 5.50
2) O=C(CCc1ccncc1)C(Nc1ccccc1Cl)c1ccccc1Br (configuration not stated) :: 5.13
3) Cc1ccc(NC(C(=O)CCc2ccncc2)c2ccccc2C)c(C(F)(F)F)c1 (configuration not stated) :: 6.19
4) Cc1cc(F)ccc1C(Nc1ccc(Cl)cc1Cl)C(=O)CCc1ccncc1 (configuration not stated) :: 6.29
5) Cc1ccc(NC(C(=O)CCc2ccncc2)c2ccccc2C)c(Cl)c1 (configuration not stated) :: 6.04
6) C=Cc1ccccc1C(Nc1ccc(C)cc1Cl)C(=O)CCc1ccncc1 (stereo in doubt; 32) :: 6.12
7) CC(=O)Nc1cccc(C(=O)C(Nc2ccc(Cl)cc2Cl)c2ccccc2Br)c1 (configuration not stated) :: 6.29
8) Cc1ccccc1[C@@H](Nc1ccc(Cl)cc1Cl)C(=O)CCc1ccncc1 :: 6.81
9) C=Cc1ccccc1C(Nc1ccc(C)cc1Cl)C(=O)CCc1ccncc1 (stereo in doubt; 4) :: 6.12
